Sourced from paper PMC4775225

Target: first bromodomain of BRD4 (BRD4-BD1) (Homo sapiens)
Construct: the first bromodomain of BRD4 (BRD4-BD1)
Test: AlphaLISA, acetylated peptide binding to BRD4-BD1
Details: BRD4-BD1, H4-TetraAc-biotin peptide; n ≥ 2 independent replicates
property.label: pIC50
One number for each entry, as −log10 of the molar value.

I would be grateful if you could share the reported pIC50 for Cc1sc2c(c1C)C(c1ccc(Cl)cc1)=N[C@@H](CC(N)=O)c1nnc(C)n1-2 . 7.30
